Target: T1, orthogonal hCD122 receptor (hoRb), hCD122 with H133D and Y134F (human, UniProt P14784 27-550); further: reference of the scale not given here
T1 sequence: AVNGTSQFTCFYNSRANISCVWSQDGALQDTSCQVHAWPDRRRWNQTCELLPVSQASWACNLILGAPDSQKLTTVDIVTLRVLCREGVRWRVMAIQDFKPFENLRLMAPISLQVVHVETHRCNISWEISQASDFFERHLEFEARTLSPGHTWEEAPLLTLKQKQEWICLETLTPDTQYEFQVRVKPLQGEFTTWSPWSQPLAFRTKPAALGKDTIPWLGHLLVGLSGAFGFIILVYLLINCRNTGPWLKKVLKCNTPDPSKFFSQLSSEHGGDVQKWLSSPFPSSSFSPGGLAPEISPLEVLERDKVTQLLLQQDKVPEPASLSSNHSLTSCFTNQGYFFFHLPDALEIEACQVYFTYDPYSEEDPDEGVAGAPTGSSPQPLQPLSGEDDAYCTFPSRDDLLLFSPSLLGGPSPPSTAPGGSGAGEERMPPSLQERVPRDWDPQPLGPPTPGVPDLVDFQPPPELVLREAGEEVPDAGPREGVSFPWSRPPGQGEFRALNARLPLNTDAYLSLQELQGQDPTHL
Assay: cell-based or functional assay
metric: Relative Proliferation Fold Change 3F8 1:50 (fold)
Express the result in fold but write the number alone.

Request the reported Relative Proliferation Fold Change 3F8 1:50 associated with Q126D, SQVLKA (ligand) APTSSSTKKTQLQLSQLLVLLKAILNGINNYKNPKLTRMLTFKFYMPKKATELKHLQCLEEELKPLEEVLNLAQSKNFHLRPRDLISNINVIVLELKGSETTFMCEYADETATIVEFLNRWITFCDSIISTLT
0.61

Can you share its Relative Proliferation Fold Change 3F8 1:50? I mean this binder: R81I, SQVLKA (ligand) APTSSSTKKTQLQLSQLLVLLKAILNGINNYKNPKLTRMLTFKFYMPKKATELKHLQCLEEELKPLEEVLNLAQSKNFHLIPRDLISNINVIVLELKGSETTFMCEYADETATIVEFLNRWITFCQSIISTLT
49.4

For the binder TQVLKA (ligand) APTSSSTKKTQLQLTQLLVLLKAILNGINNYKNPKLTRMLTFKFYMPKKATELKHLQCLEEELKPLEEVLNLAQSKNFHLRPRDLISNINVIVLELKGSETTFMCEYADETATIVEFLNRWITFCQSIISTLT , what Relative Proliferation Fold Change 3F8 1:50 is on record?
8.69

For the binder ΔR81, SQVLKA (ligand) APTSSSTKKTQLQLSQLLVLLKAILNGINNYKNPKLTRMLTFKFYMPKKATELKHLQCLEEELKPLEEVLNLAQSKNFHLPRDLISNINVIVLELKGSETTFMCEYADETATIVEFLNRWITFCQSIISTLT , what Relative Proliferation Fold Change 3F8 1:50 is on record?
24

Entry Q126K, SQVLKA (ligand) APTSSSTKKTQLQLSQLLVLLKAILNGINNYKNPKLTRMLTFKFYMPKKATELKHLQCLEEELKPLEEVLNLAQSKNFHLRPRDLISNINVIVLELKGSETTFMCEYADETATIVEFLNRWITFCKSIISTLT has what Relative Proliferation Fold Change 3F8 1:50?
1.51

For the binder shown here, Q126M, SQVLKA (ligand) APTSSSTKKTQLQLSQLLVLLKAILNGINNYKNPKLTRMLTFKFYMPKKATELKHLQCLEEELKPLEEVLNLAQSKNFHLRPRDLISNINVIVLELKGSETTFMCEYADETATIVEFLNRWITFCMSIISTLT , give the reported Relative Proliferation Fold Change 3F8 1:50.
31.8

Any idea what its Relative Proliferation Fold Change 3F8 1:50 is? The binder is K97Q, SQVLKA (ligand) APTSSSTKKTQLQLSQLLVLLKAILNGINNYKNPKLTRMLTFKFYMPKKATELKHLQCLEEELKPLEEVLNLAQSKNFHLRPRDLISNINVIVLELQGSETTFMCEYADETATIVEFLNRWITFCQSIISTLT
33.1
